Source of measurements: patent US8008547B2

Test: Standard protocol for determination of kcat and KM (continuous spectrophotometric assay, Acetyl CoA hydrolysis at 235 nm)
Assay type: biochemical
Conditions: purified protein; about 23° C.; 20 mM HEPES pH 6.8, 10% ethylene glycol, 0.2 mM acetyl CoA
measurement-label: Kcat
Don't forget the unit after the number, please.

>  <molecule>
SEQ ID NO: 349: GAT polypeptide (protein, 21E11, GAT polypeptide) MIEVKPINAEDTYEIRHRILRPNQPLEACKYETDLLGGAFHLGGYYQGKLISIASFHQAEHSELEGQKQYQLRGMATLEGYREQKAGSTLIRHAEELLRKKGADLLWCNARTSVSGYYKKLGFSEQGEVYDIPPIGPHILMYKKLT

>  <measurement-label>
Kcat

>  <val>
0.0183 s⁻¹

$$$$

The reported Kcat of the molecule SEQ ID NO: 348: GAT polypeptide (protein, 20F2, GAT polypeptide) MIEVKPINAEDTYEIRHRILRPNQPLEACMYETDLLGGTFHLGGYYRGKLISIASFHQAEHSELEGQKQYQLRGMATLEGYREQKAGSTLIRHAEELLRKKGADLLWCNARTSVSGYYEKLGFSEQGEVYDIPPIGPHILMYKKLT was 0.065 s⁻¹
